EXPERIMENTAL_SYSTEM: T1, PD-L1 (UniProt Q9NZQ7 19-238, limits assumed)
T1 construct: Coated antigen of experiments 1 and 3; also called 程序性死亡分子1配体; CD274
T1 sequence (Q9NZQ7 19-238 limits assumed): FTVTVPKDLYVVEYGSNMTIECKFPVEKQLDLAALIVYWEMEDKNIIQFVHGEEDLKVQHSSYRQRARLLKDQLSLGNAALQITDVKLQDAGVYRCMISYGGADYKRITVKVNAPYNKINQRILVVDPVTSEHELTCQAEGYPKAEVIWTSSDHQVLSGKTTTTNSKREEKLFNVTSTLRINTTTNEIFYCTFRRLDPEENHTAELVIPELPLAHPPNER
TEST_DESCRIPTION: ELISA, PD-L1 coated 100 ng/well, full antibody titrated from 1 ug/ml, Anti-Human Fc-HRP
Recorded EC50 for the following binders
Provide the reading as a plain figure in ng/mL.

As a guide, the following entries are already answered.
AH10-E3 全抗体 (full antibody, human IgG1/kappa) (antibody, V domains shown, Full antibody expressed in HEK293E from vector pTSE) VH: EVQLVESGGGLVQPGGSLRLSCAASGWTLSDSLQHWVRQAPGKGLEWVGFQSAYGGSTYYADSVKGRFTISADTSKNTAYLQMNSLRAEDTAVYYCARRHYYTAWDYWGQGTLVTVSS VL: DIQMTQSPSSLSASVGDRVTITCRASQSIHNYLAWYQQKPGKAPKLLIYSASNLPSGVPSRFSGSGSGTDFTLTISSLQPEDFATYYCQQGLHTPPTFGQGTKVEIKR :: 1.91
AC9-B11 全抗体 (full antibody, human IgG1/kappa) (antibody, V domains shown, Full antibody expressed in HEK293E from vector pTSE) VH: EVQLVESGGGLVQPGGSLRLSCAASGCTWSDSWDHWVRQAPGKGLEWVDYESTYGGSTYYADSVKGRFTISADTSKNTAYLQMNSLRAEDTAVYYCARRHWNATFDYWGQGTLVTVSS VL: DIQMTQSPSSLSASVGDRVTITCRASQNIHNSLAWYQQKPGKAPKLLIYGASSLESGVPSRFSGSGSGTDFTLTISSLQPEDFATYYCQQERRVPWTFGQGTKVEIKR :: 0.574

[Q] Any idea what its EC50 is? The binder is AH10-B11 全抗体 (full antibody, human IgG1/kappa) (antibody, V domains shown, Full antibody expressed in HEK293E from vector pTSE; also called AH10-811) VH: EVQLVESGGGLVQPGGSLRLSCAASGWTLSDSLQHWVRQAPGKGLEWVGFQSAYGGSTYYADSVKGRFTISADTSKNTAYLQMNSLRAEDTAVYYCARRHYYTAWDYWGQGTLVTVSS VL: DIQMTQSPSSLSASVGDRVTITCRASQNIHNSLAWYQQKPGKAPKLLIYGASSLESGVPSRFSGSGSGTDFTLTISSLQPEDFATYYCQQERRVPWTFGQGTKVEIKR
[A] 1.43
